Biological target: Human Factor D (Homo sapiens (Human))
Sequence (P00746 26-253): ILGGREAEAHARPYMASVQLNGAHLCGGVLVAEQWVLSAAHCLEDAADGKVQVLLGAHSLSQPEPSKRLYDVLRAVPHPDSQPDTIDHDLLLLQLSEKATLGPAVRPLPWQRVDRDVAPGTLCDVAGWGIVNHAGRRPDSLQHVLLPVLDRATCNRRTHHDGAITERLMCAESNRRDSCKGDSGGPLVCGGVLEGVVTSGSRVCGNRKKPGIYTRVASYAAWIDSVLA
Assay: Human Factor D Assay
Type: biochemical
Settings: Factor D inhibition, assay of Example 10; read-out: IC50 (Stars)
For each entry below, report its IC50 value.

# example entries with known answers
Compound	IC50
CC(=O)c1nn(CC(=O)N2[C@H](C(=O)Nc3nc(Br)c(F)cc3C)C[C@@]3(CN(CCO)CCO)C[C@@H]23)c2cnc(-c3cnc(C)nc3)cc12 [Compound 248]	< 1 µM
CC(=O)c1nn(CC(=O)N2[C@H](C(=O)Nc3nc(Br)ccc3COCCF)C[C@@]3(C)C[C@@H]23)c2ccc(-c3cnc(C)nc3)cc12 [Compound 301]	< 1 µM

### Prompt Quick check: IC50 of CC(=O)c1nn(CC(=O)N2[C@H](C(=O)Nc3nc(Br)ccc3C)C[C@@]3(C)C[C@@H]23)c2cnc(-c3cnc(C)cn3)cc12 [Compound 303] ?
### Response < 1 µM
